Source listed as ChEMBL document CHEMBL3797039.

Entries with their measured pKi, system Apoptosis regulator Bcl-2 (Homo sapiens):
pKi: −log10 of the molar value.
PROPERTY MEASURED: pKi

# COMPOUND SMILES, pKi
records = [
    ("CC(C)Oc1ccc(-c2cc(C(=O)O)nn2-c2ccc(C(C)C)cc2)cc1", 5.28),
]

[a] CCOc1ccc(-c2cc(C(=O)O)nn2-c2ccccc2)cc1
[b] CCOc1ccc(-c2c(NC(=O)c3ccc(OC(C)C)cc3)c(C(=O)O)nn2-c2ccc(Oc3ccccc3)cc2)cc1
Field: entry with larger pKi (options a / b ). Returns: label corresponding to the selected item.
b

* * *

- STUDY SYSTEM: Apoptosis regulator Bcl-2 (Homo sapiens)
- Sequence (P10415 whole entry): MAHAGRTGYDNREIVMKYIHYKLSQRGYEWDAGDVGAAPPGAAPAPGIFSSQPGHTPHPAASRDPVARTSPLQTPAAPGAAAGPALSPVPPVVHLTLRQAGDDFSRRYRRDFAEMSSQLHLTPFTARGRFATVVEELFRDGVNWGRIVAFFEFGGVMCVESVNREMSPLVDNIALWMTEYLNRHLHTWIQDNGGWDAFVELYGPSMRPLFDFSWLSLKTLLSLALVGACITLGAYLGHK
- TEST PROTOCOL: Binding affinity to N-terminal 8x His-tagged Bcl-2 (unknown origin) expressed in Escherichia coli BL21 (DE3) by isothermal titration microcalorimetric method
PROPERTY MEASURED: Kd (nM)
Expressed in nM, but write only the number.

Please report the recorded Kd for CC(C)Oc1ccc(C(=O)Nc2c(C(=O)O)nn(-c3ccc(Oc4ccccc4)cc3)c2-c2ccc(OC(C)C)cc2)cc1 .
290
